Data credit: the DeepSol protein solubility set

protocol_details: soluble on expression in E. coli; label from the status in PepcDB or PDB records

[
  {
    "sequence_entry": "MKIQLIAVGTKMPKWVEEGFQEYRRRFPHDMPLELVEITAGKRGKNADIARILQKEGEAMLAAVPKGNRIVTLDIPGKRWDTEELAVQLESWKLDGRDVSILIGGPEGLAPACKAAADQSWSLSPLTLPHPLVRVVMAESLYRAWSITTNHPYHRELEHHHHHH",
    "soluble on expression in E. coli": "soluble"
  },
  {
    "sequence_entry": "MIKKCLFPAAGYGTRFLPITKTIPKEMLPIVDKPLIQYAVEEAMEAGCEVMAIVTGRNKRSLEDYFDTSYEIEHQIQGTNKENALKSIRNIIEKCCFSYVRQKQMKGLGHAILTGEALIGNEPFAVILADDLCISHDHPSVLKQMTSLYQKYQCSIVAIEEVALEEVSKYGVIRGEWLEEGVYEIKDMVEKPNQEDAPSNLAVIGRYILTPDIFEILSETKPGKNNEIQITDALRTQAKRKRIIAYQFKGKRYDCGSVEGYIEASNAYYKKRLLEHHHHHH",
    "soluble on expression in E. coli": "soluble"
  }
]

----------
protocol_details: soluble on expression in E. coli; label from the status in PepcDB or PDB records
experimental_endpoint: soluble on expression in E. coli

Reference set (5 entries):
[
  {
    "sequence_entry": "MGSDKIHHHHHHMTTSTNERTTRAELQDAPRVARLHPQPDYRISVGGRDLSRLFAPRLVSLSISESRSDEADTIDIVLDDSKNDLDIPKRGATIKASIGWAGEPLVDKGSFVVNEVEHSGAPDIITIRARSAAMTSGMQERREKSWHRQTIGSIVHAIAGRYSLSPTVGDALAKILIAHIDQTHESDMSFLTRLAKRYDAVMNVKDLRLLFMPIGTGQTATGKKLDVLELTRASGDSHRYHVSERENYAAVRAHYHSTGRAKRKSVIVGGENNKNVKVLPEDYATEAEARAAAQAEFKRMQRSQATMSYTLARGRAELFPEMPVTVSGFKPEIDETPWLVKKATHTIGDVGFTTALELEMRDDPTTERHRSHFQGSR",
    "soluble on expression in E. coli": "not soluble"
  },
  {
    "sequence_entry": "MAEIPLFPLSNALFPAGVLRLRVFEIRYLDMVRRCIADGSEFGVVVLEQGTEVRRPDGREVLARAGTMARIDHWEAPMPALLELACTGTGRFRLHACTQGKYGLWTGQAEPVPDDAPLEVPPELARSASALGRLIARLQREGVPPHIMPMAAPFRLDDCGWVADRWAEMLSLPPADKARLLLLPPLDRLREIDAVLAADGHALEHHHHHH",
    "soluble on expression in E. coli": "soluble"
  },
  {
    "sequence_entry": "AAMKVYDVTAPIYEGMPVYKNKPEKQPKRTTITNGYVTESRIDMDVHTGTHIDAPLHMVEGGATFETIPLNDLVGPCKLFDLTHVNDRITKDDIAHLDIQEGDFVLFKTKNSFEDAFHFEFIFVAEDAARYLADKQIRGVGIDALGIERAQEGHPTHKTLFSAGVIIIEGLRLKDVPEGRYFMVAAPLKLVGTDAAPARVLLFDREP",
    "soluble on expression in E. coli": "soluble"
  },
  {
    "sequence_entry": "GPGSMDLNMRLLTRIFTYRRNHAEQGTIMSSKIAELSGRILSQQQYSQILEQRRWLQGLLKEVSLDMGAKEKEKSASPVVLPYGSIVSGTSFKDGDADYIVSFPIVSESTRQSGACVIDRERQEKFLSDIFSHIRKRNSDVELHPQRIFRARVPIVQYVRKSGQESARFDLSLSLDGLKNSLLLRQYMAGDPRLRLGVLGAKQWGREQQILNARRGWISPYALSIMYIHYMKETGRTALSFDEEAVSQRVNAIVSTAAESEGDISHVDELASILPLQEADMLLVEKDVFDFFAFYGTPGGFDFDASVVDIRSRERFSSKDQWCQLLDQLDERERWNLLGHEVILLRDPFEPHSLGRSVDFFRGEEIRERFRSAAVRKEPLSLFAFL",
    "soluble on expression in E. coli": "not soluble"
  },
  {
    "sequence_entry": "MTPPRMRISGENELVQALLEHGHVLVEASEAELIFDPTQLVRRGQIVAHLGHATLADLDAYSSGHAFVLTELMPQIYAVTASDELAGMVAELLISELGGRVVHVPESQRDRLTAGLACAGFIGQVRSEARNLLTEALGNAHHADEVVEQLTDAVAPPLNVAALERGYHAIDSVGTKRLYAQLARRSGEVFRNNDVELWAMNQEQNNT",
    "soluble on expression in E. coli": "not soluble"
  }
]

Item under review: MNDGKISILVLGADKAQGGQSRTDSIMVVQYDFINKKMKMMSVMRDIYADIPGYGKHKINSAYALGGPKLLRKTLDKNLGINPEYYAVVDFTGFEKMIDELMPEGVPINVEKDMSKNIGVSLKKGNHRLNGKELLGYARFRHDPEGDFGRVRRQQQVMQTLKKEMVNFRTVVKLPKVAGILRGYVNTNIPDSGIFQTGLSFGIRGEKDVKSLTVPIKNSYEDVNTNTDGSALQINKNTNKQAIKDFLDEDLEHHHHHH . Reported soluble on expression in E. coli?
soluble
